# TGI per record follows
- System: U251 CNS
- ASSAY SUMMARY: NCI tumour cell line growth inhibition, 48 h

Lookup: I am curious: what TGI value has been reported for COCC([C@@H](O)C(O)C(=O)NCC[C@@H](C)c1nc(/C=C/CC2OC3(C[C@H](O)C2C)OC(C(C[C@H](O)C(C)[C@H](O)C(C)/C=C(C)/C(C)=C/C=C/C(C)=C/C#N)OC)[C@@H](OP(=O)(O)O)C3(C)C)co1)N(C)C (some centres undefined) ?
Found: 0.000332 µM

Lookup: I am curious: what TGI value has been reported for "O=C1/C(=C/c2ccc(Cl)c(Cl)c2)CN(C(=O)CCN2CCC(=NO)CC2)C/C1=C\c1ccc(Cl)c(Cl)c1" ?
Found: 0.818 µM

Lookup: I am curious: what TGI value has been reported for "O=c1c2c3c(sc2[nH]c(=S)n1-c1ccccc1)CCCc1ccc([N+](=O)[O-])cc1-3" ?
Found: > 100 µM

Lookup: I am curious: what TGI value has been reported for "Cc1ccc2c(-c3ccnc(Nc4ccc5c(c4)OCCO5)n3)c(-c3ccc(C(F)(F)F)cc3)nn2n1" ?
Found: > 25 µM

***
Lookup: I am curious: what TGI value has been reported for CC1(C)CC(=O)C2=C(C1)C(c1ccccc1Cl)C1C(=O)CC(C)(C)CC1(O)O2 (centres undefined) ?
Found: > 100 µM

Lookup: I am curious: what TGI value has been reported for C[C@@H]1CC[C@@]2(C)C(C(=O)O)=CCCC2[C@@]1(C)CC(=O)c1ccoc1 (some centres undefined) ?
Found: > 25 µM

Lookup: I am curious: what TGI value has been reported for "CN(/N=C1\C(=O)Nc2ccccc21)c1ccccc1" ?
Found: > 100 µM

Lookup: I am curious: what TGI value has been reported for COC(=O)C1C(C(=O)OC)C2C(=O)C3C(C(=O)OC)C(C(=O)OC)C3C(=O)C12 (centres undefined) ?
Found: > 100 µM

Lookup: I am curious: what TGI value has been reported for "NC1=CC(=O)c2c(O)ccc(O)c2C1=O" ?
Found: 33.9 µM

The origin of these recorded values is PubChem BioAssay (NCI).
